Exercise: state measured CLint scaled at 1 µM for each of the molecules provided.
assay: Liver microsomal stability, human; assay type: in vitro ADME; details: human liver microsomes 0.5 mg/mL, compound 1 µM, NADPH 1 mM, 60 minutes
State just the number; it will be interpreted in mL/min/kg.

IN: What value of measured CLint scaled at 1 µM is listed for Cc1c(CO)c(N)nc2cc(F)c(C(=O)N(C)[C@@H]3COc4cc(C(F)(F)F)ccc43)cc12 ?
OUT: 8.9

IN: What value of measured CLint scaled at 1 µM is listed for Cc1c(CO)c(N)nc2cc(F)c(C(=O)N(C)C3COCc4nc(C(F)(F)F)ccc43)cc12 (racemic) ?
OUT: 11.1

IN: What value of measured CLint scaled at 1 µM is listed for Cc1c(CO)c(N)nc2cc(F)c(C(=O)N(C)C3COc4cc(C(F)(F)F)ccc43)cc12 (racemic) ?
OUT: 3.6

###

test system: HCT116-MTAPdel; experiment: 2D anti-proliferation assay (CTG luminescence), MTAP-deficient HCT116 cells; format: cell-based; conditions: ratio of IC50 HCT116 WT / MTAPdel
quantity: HCT116 WT/MTAPdel Selectivity

IN: What value of measured HCT116 WT/MTAPdel Selectivity is listed for CN(C(=O)c1ccc2nc(N)c(C3CC3)cc2c1)C1COc2cc(OC(F)(F)F)ccc21 (stereo not shown) ?
OUT: >1

IN: What value of measured HCT116 WT/MTAPdel Selectivity is listed for Cc1c(CO)c(N)nc2cc(Cl)c(C(=O)N3[C@H](C)COC[C@@H]3c3ccc(C(F)(F)F)cn3)cc12 ?
OUT: 100

IN: What value of measured HCT116 WT/MTAPdel Selectivity is listed for CN(C(=O)c1ccc2nc(N)c(C3CC3)cc2c1)C1COc2cc(-c3cnn(C)c3)ccc21 (racemic) ?
OUT: >3

IN: What value of measured HCT116 WT/MTAPdel Selectivity is listed for CC(C)N1CCN(c2ccc([C@@H]3COC[C@H](C)N3C(=O)c3cc4cc(C5CC5)c(N)nc4cc3F)cc2)CC1 ?
OUT: >16

IN: What value of measured HCT116 WT/MTAPdel Selectivity is listed for Nc1nc2cc(F)c(C(=O)N3CCOCC3c3ccc(C(F)(F)F)cn3)cc2cc1C1CC1 (stereo not shown) ?
OUT: >4

IN: What value of measured HCT116 WT/MTAPdel Selectivity is listed for Cc1c(CO)c(N)nc2cc(Cl)c(C(=O)N3[C@@H](C)COC[C@H]3c3ccc(C(F)(F)F)cn3)cc12 ?
OUT: >3

IN: What value of measured HCT116 WT/MTAPdel Selectivity is listed for CN(C(=O)c1ccc2nc(N)c(C3CC3)cc2c1)C1COc2cc(C(F)(F)F)ccc21 (racemic) ?
OUT: >2
